Test system: rabbit skeletal myofibrils (fast skeletal myofibrils)
PROCEDURE TEXT: Activation of fast skeletal myofibrils (PUMA assay, PK/LDH-coupled ATPase at pCa25)
Format: biochemical
PROTOCOL CONDITIONS: median AC1.4 class, procedure of Example 39
MEASURED ATTRIBUTE: Mean AC1.4

Asked: Endpoint output: Mean AC1.4 of Fc1cccnc1C1(CNc2ccc(-c3ccc4cn[nH]c4c3)nn2)CC(F)(F)C1 . Value?
Given back: B (B=1-10 uM)

Asked: Endpoint output: Mean AC1.4 of N#Cc1cnc(-c2ccc(NCC3(c4ncccc4F)CCC3)nn2)s1 . Value?
Given back: B (B=1-10 uM)

Asked: Endpoint output: Mean AC1.4 of NC(=O)c1ccc(Cl)c(-c2ccc(NC3(c4ncccc4F)CCC3)nn2)c1 . Value?
Given back: B (B=1-10 uM)

----------
System: rabbit skeletal myofibrils (fast skeletal myofibrils)
PROCEDURE TEXT: Activation of fast skeletal myofibrils (PUMA assay, PK/LDH-coupled ATPase at pCa25)
Format: biochemical
PROTOCOL CONDITIONS: median AC1.4 class, procedure of Example 39
MEASURED ATTRIBUTE: Mean AC1.4

Some solved entries appear below for comparison.
Asked: Endpoint output: Mean AC1.4 of NC(=O)[C@H]1C[C@@H]1c1ccc(NCC2(c3ncccc3F)CCC2)nn1 . Value?
Given back: D (D=>20 uM)

Asked: Endpoint output: Mean AC1.4 of CCOC(=O)C(C(=O)OCC)c1ccc(NCC2(c3ncccc3F)CCC2)nn1 . Value?
Given back: D (D=>20 uM)

Asked: Endpoint output: Mean AC1.4 of O=C(O)c1csc2nc(-c3ccc(NCC4(c5ncccc5F)CCC4)nn3)cn12 . Value?
Given back: A (A=<1 uM)

Asked: Endpoint output: Mean AC1.4 of O=C(OCc1ccccc1)N1CC(c2ccc(NCC3(c4ncccc4F)CCC3)nn2)C1 . Value?
Given back: D (D=>20 uM)

Asked: Endpoint output: Mean AC1.4 of OCc1cnc(-c2ccc(NCC3(c4ncccc4F)CCC3)nn2)s1 . Value?
Given back: B (B=1-10 uM)

Asked: Endpoint output: Mean AC1.4 of O=C(NC[C@@H](O)CO)c1ccc(F)c(-c2ccc(NC[C@]3(c4ncccc4F)C[C@H](F)C3)nn2)c1 . Value?
Given back: A (A=<1 uM)

Asked: Endpoint output: Mean AC1.4 of O=C(NCC(O)CO)c1cnc(-c2ccc(NCC3(c4ncccc4F)CCC3)nn2)s1 (stereo not drawn) . Value?
Given back: A (A=<1 uM)

Asked: Endpoint output: Mean AC1.4 of O=C(O)c1cccc(-c2ccc(NC[C@]3(c4ncccc4F)C[C@H](F)C3)nn2)c1 . Value?
Given back: A (A=<1 uM)

Could you now consider this next compound?
Asked: Endpoint output: Mean AC1.4 of N#Cc1ccc(NCC2(c3ncccc3F)CCC2)nn1 . Value?
Given back: D (D=>20 uM)

----------
Tested on: rabbit skeletal myofibrils (fast skeletal myofibrils)
PROCEDURE TEXT: Activation of fast skeletal myofibrils (PUMA assay, PK/LDH-coupled ATPase at pCa25)
Assay type: biochemical
PROTOCOL CONDITIONS: AC1.4 determined according to the procedure of Example 39; reported as class symbols
MEASURED ATTRIBUTE: Mean AC1.4

Some solved entries appear below for comparison.
Asked: Endpoint output: Mean AC1.4 of COc1ccc(C2(CNc3ccc(-c4ccc5[nH]ncc5c4)nn3)CCC2)nc1 . Value?
Given back: B (B=1-10 uM)

Asked: Endpoint output: Mean AC1.4 of CC(C)(CNc1ccc(-c2ccc3[nH]nc(NS(C)(=O)=O)c3c2)nn1)c1ccc(F)cc1 . Value?
Given back: A (A=<1 uM)

Asked: Endpoint output: Mean AC1.4 of CC(C)(CNc1ccc(CO)nn1)c1ccc(F)cc1 . Value?
Given back: D (D=>20 uM)

Asked: Endpoint output: Mean AC1.4 of NC(=O)c1cccc(-c2ccc(NCCc3cc(F)cc(F)c3)nn2)c1 . Value?
Given back: D (D=>20 uM)

Asked: Endpoint output: Mean AC1.4 of CS(=O)(=O)N(CC1(c2ncccc2F)CNC1)c1ccc(-c2ccc3[nH]ncc3c2)nn1 . Value?
Given back: D (D=>20 uM)

Asked: Endpoint output: Mean AC1.4 of CC(C)(CNc1ccc(C(=O)N[C@H]2CCC[C@H]2C(N)=O)nn1)c1ccc(F)cc1 (stereo in doubt) . Value?
Given back: D (D=>20 uM)

Asked: Endpoint output: Mean AC1.4 of NC(=O)c1cccc(-c2ccc(NCCc3ccccc3Cl)nn2)c1 . Value?
Given back: B (B=1-10 uM)

Asked: Endpoint output: Mean AC1.4 of CC(C)(CNc1ccc(-c2cccc(C(N)=O)c2)nn1)c1ncccc1F . Value?
Given back: B (B=1-10 uM)

Asked: Endpoint output: Mean AC1.4 of CC(C)(CNc1ccc(-c2cccc(N)n2)nn1)c1ccc(F)cc1 . Value?
Given back: B (B=1-10 uM)

Asked: Endpoint output: Mean AC1.4 of CC(C)(CNc1ccc(C(=O)N2CCNCC2)nn1)c1ccc(F)cc1 . Value?
Given back: D (D=>20 uM)

***
Asked: Endpoint output: Mean AC1.4 of CC(C)(CNc1ccc(C(=O)N2CCCCC2C(N)=O)nn1)c1ccc(F)cc1 (stereo not drawn) . Value?
Given back: D (D=>20 uM)

Asked: Endpoint output: Mean AC1.4 of N=C(N)Nc1ccc(-c2ccc(NCC3(c4ncccc4F)CCC3)nn2)cc1 . Value?
Given back: B (B=1-10 uM)

Asked: Endpoint output: Mean AC1.4 of N#Cc1cccc(C2(CNc3ccc(-c4cccc(C(N)=O)c4)nn3)CCC2)n1 . Value?
Given back: B (B=1-10 uM)

Asked: Endpoint output: Mean AC1.4 of N#Cc1cccc(C2(CNc3ccc(-c4ccc5[nH]ncc5c4)nn3)CCC2)n1 . Value?
Given back: B (B=1-10 uM)

Asked: Endpoint output: Mean AC1.4 of CC(C)(CNc1ccc(-c2ccc(O)cn2)nn1)c1ccc(F)cc1 . Value?
Given back: A (A=<1 uM)

----------
Test system: rabbit skeletal myofibrils (fast skeletal myofibrils)
PROCEDURE TEXT: Activation of fast skeletal myofibrils (PUMA assay, PK/LDH-coupled ATPase at pCa25)
Format: biochemical
PROTOCOL CONDITIONS: AC1.4 determined according to the procedure of Example 39; reported as class symbols
MEASURED ATTRIBUTE: Mean AC1.4

Some solved entries appear below for comparison.
Asked: Endpoint output: Mean AC1.4 of CC(C)(CNc1ccc(-c2ccc(C(=O)c3ccccc3)cc2)nn1)c1ccc(F)cc1 . Value?
Given back: D (D=>20 uM)

Asked: Endpoint output: Mean AC1.4 of Cc1cc(NCC(C)(C)c2ccc(F)cc2)nnc1-c1cccc(C#N)c1 . Value?
Given back: B (B=1-10 uM)

Asked: Endpoint output: Mean AC1.4 of Fc1cccnc1C1(CNc2ccc(-c3ccc4cn[nH]c4c3)nn2)CCC1 . Value?
Given back: A (A=<1 uM)

Asked: Endpoint output: Mean AC1.4 of CC(C)(CNc1ccc(-c2ccc3[nH]nc(N)c3c2)nn1)c1ccc(CN)cc1 . Value?
Given back: D (D=>20 uM)

Asked: Endpoint output: Mean AC1.4 of NC(=O)c1cccc(-c2ccc(NCCc3ccccc3)nn2)c1 . Value?
Given back: D (D=>20 uM)

Asked: Endpoint output: Mean AC1.4 of CC(=O)Nc1nc2cc(-c3ccc(NCC(C)(C)c4ccc(F)cc4)nn3)ccc2[nH]1 . Value?
Given back: A (A=<1 uM)

Asked: Endpoint output: Mean AC1.4 of CC(C)(CNc1ccc(-c2ccc3[nH]nc(N)c3c2)nn1)c1ccc(CCO)cc1 . Value?
Given back: B (B=1-10 uM)

Asked: Endpoint output: Mean AC1.4 of CC(C)(CNc1ccc(-c2ccc3c(N)n[nH]c3c2)nn1)c1ccc(F)cc1 . Value?
Given back: A (A=<1 uM)

Asked: Endpoint output: Mean AC1.4 of CC(C)(CNc1ccc(C(=O)NC2(C(=O)O)CC2)nn1)c1ccc(F)cc1 . Value?
Given back: D (D=>20 uM)

***
Asked: Endpoint output: Mean AC1.4 of CNc1n[nH]c2ccc(-c3ccc(NCC4(c5ncccc5F)CCC4)nn3)cc12 . Value?
Given back: A (A=<1 uM)

----------
Test system: rabbit skeletal myofibrils (fast skeletal myofibrils)
PROCEDURE TEXT: Activation of fast skeletal myofibrils (PUMA assay, PK/LDH-coupled ATPase at pCa25)
Assay type: biochemical
PROTOCOL CONDITIONS: AC1.4 determined according to the procedure of Example 39; reported as class symbols
MEASURED ATTRIBUTE: Mean AC1.4

Asked: Endpoint output: Mean AC1.4 of CC(C)(CNc1ccc(-c2cnc(N)nc2)nn1)c1ccc(F)cc1 . Value?
Given back: B (B=1-10 uM)

Asked: Endpoint output: Mean AC1.4 of COc1ccnc(C2(CNc3ccc(-c4ccc5cn[nH]c5c4)nn3)CCC2)c1 . Value?
Given back: A (A=<1 uM)

Asked: Endpoint output: Mean AC1.4 of CC(C)(CNc1ccc(-c2ccc3[nH]nc(N)c3c2)nn1)c1ccc(C#N)cc1 . Value?
Given back: A (A=<1 uM)

Asked: Endpoint output: Mean AC1.4 of CC(C)(CNc1ccc(-c2ccc(Cl)cc2)nn1)c1ccc(F)cc1 . Value?
Given back: B (B=1-10 uM)

All figures here come from patent US10076519B2.
